In this section, each of the compounds is paired with its reported pKi.
# Target Under Test: UniProt P34972
# Protocol Notes: Displacement of [3H]CP-55940 from human cannabinoid CB2 receptor expressed in CHO cells
# Assay type: cell-based
pKi: −log10 of the molar value.

Illustrative cases are given below, each with its answer.
Compound: CN/C(=N\S(=O)(=O)c1ccc(Cl)cc1)C1=NN(c2ccc(Cl)cc2Cl)C(c2ccccc2)C1 (centres undefined)
Value Observed: 6.61
//
Compound: CNC(=NS(=O)(=O)N1CCC(C(F)(F)F)CC1)C1=NN(c2ccc(Cl)cc2)[C@H](c2ccccc2)C1
Value Observed: < 6.00
//
Compound: CN/C(=N\S(=O)(=O)N1CCC(F)(F)CC1)C1=NN(c2ccc(Cl)cc2)[C@@H](c2ccccc2)C1
Value Observed: < 6.00
//
Compound: CN/C(=N\S(=O)(=O)N1CCC(C(F)(F)F)CC1)C1=NN(c2ccc(Cl)cc2)C(c2ccccc2)C1 (centres undefined)
Value Observed: 6.22
//
Compound: CN/C(=N\S(=O)(=O)N1CCC(C(F)(F)F)CC1)N1CC(c2ccccc2)C(c2ccc(Cl)cc2)=N1 (centres undefined)
Value Observed: < 6.00

Look at this compound and give its reported pKi. CNC(=NS(=O)(=O)N1CCC(C(F)(F)F)CC1)N1C[C@H](c2ccccc2)C(c2ccc(Cl)cc2)=N1
6.52

Item under review: CN/C(=N\S(=O)(=O)c1ccc(F)cc1)C1=NN(c2ccc(Cl)cc2)C(c2ccccc2)C1 (centres undefined) . Reported pKi?
< 6.00

###

# Target Under Test: Cannabinoid receptor 1 (Homo sapiens, UniProt P21554)
# Sequence (P21554 whole entry): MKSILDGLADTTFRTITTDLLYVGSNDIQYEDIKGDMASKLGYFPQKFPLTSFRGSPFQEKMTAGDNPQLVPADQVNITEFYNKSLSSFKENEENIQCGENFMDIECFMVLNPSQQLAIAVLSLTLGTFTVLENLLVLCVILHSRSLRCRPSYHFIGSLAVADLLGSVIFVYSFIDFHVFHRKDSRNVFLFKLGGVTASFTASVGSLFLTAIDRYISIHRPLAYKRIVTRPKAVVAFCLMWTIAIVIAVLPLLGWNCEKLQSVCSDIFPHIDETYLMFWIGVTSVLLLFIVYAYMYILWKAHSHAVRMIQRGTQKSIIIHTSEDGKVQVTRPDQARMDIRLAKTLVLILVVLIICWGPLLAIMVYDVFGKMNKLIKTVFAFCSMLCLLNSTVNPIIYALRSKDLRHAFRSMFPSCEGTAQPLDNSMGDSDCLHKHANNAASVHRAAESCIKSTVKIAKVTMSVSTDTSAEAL
# Protocol Notes: Antagonist activity at human cannabinoid CB1 receptor expressed in CHO cells assessed as inhibition of CP-55940-induced [3H]arachidonic acid release
# Assay type: functional, cell-based
# Assay Setup: read-out: pA2 (converted)
Quick list: Kb per entry.
API: value field is a number in nM; no unit string.

Fill in the blank: the reported Kb of CNC(=NS(=O)(=O)N1CCC(C(F)(F)F)CC1)N1C[C@H](c2ccccc2)C(c2ccc(Cl)cc2)=N1 is ____.
0.251

Dear colleague, I am looking for the recorded Kb of the following compound: CNC(=NS(=O)(=O)N1CCC(C(F)(F)F)CC1)N1C[C@@H](c2ccccc2)C(c2ccc(Cl)cc2)=N1
50.1

###

Attribute: log10(Kb)
# Target Under Test: Cannabinoid receptor 1 (Homo sapiens, UniProt P21554)
# Protocol Notes: Antagonist activity at human cannabinoid CB1 receptor expressed in CHO cells assessed as inhibition of CP-55940-induced [3H]arachidonic acid release
# Assay type: functional, cell-based
# Assay Setup: read-out: pA2 (converted)
Annotation: log10 of Kb, nM basis.

A selection of reference data follows.
Compound: CNC(=NS(=O)(=O)N1CCC(C(F)(F)F)CC1)C1=NN(c2ccc(Cl)cc2)[C@H](c2ccccc2)C1
Value Observed: 0.80

Compound: CN/C(=N\S(=O)(=O)c1ccc(Cl)cc1)C1=NN(c2ccc(Cl)cc2Cl)C(c2ccccc2)C1 (stereo not given)
Value Observed: 0.00

Compound: CN/C(=N\S(=O)(=O)N1CCC(F)(F)CC1)C1=NN(c2ccc(Cl)cc2)[C@@H](c2ccccc2)C1
Value Observed: 0.20

State the recorded log10(Kb) for this entry: CN/C(=N\S(=O)(=O)N1CCC(F)CC1)C1=NN(c2ccc(Cl)cc2)C(c2ccccc2)C1 (stereo not given)
0.60

If you can, please state the reported log10(Kb) value of CN/C(=N\S(=O)(=O)c1ccc(C(F)(F)F)cc1)C1=NN(c2ccc(Cl)cc2Cl)C(c2ccccc2)C1 (stereo not given) .
0.40

###

Measured Ki (Cannabinoid receptor 2 (Homo sapiens, UniProt P34972))

For orientation, consider the following solved cases.
Compound: CNC(=NS(=O)(=O)N1CCC(F)(F)CC1)N1C[C@H](c2ccccc2)C(c2ccc(Cl)cc2)=N1
Ki: > 1000 nM

Compound: CN=C(NS(=O)(=O)N1CCC(F)(F)CC1)C1=NN(c2ccc(Cl)cc2)C(c2ccccc2)C1 (configuration not stated)
Ki: > 1000 nM

Look up Ki: CNC(=NS(=O)(=O)N1CCC(C(F)(F)F)CC1)N1C[C@@H](c2ccccc2)C(c2ccc(Cl)cc2)=N1
> 1000 nM

Value lookup for Ki; key = CN/C(=N\S(=O)(=O)c1ccc(Cl)cc1)C1=NN(c2ccc(Cl)cc2)C(c2ccccc2)C1 (configuration not stated)
> 1000 nM

Query: Ki; subject: CN/C(=N\S(=O)(=O)N1CCC(F)(F)CC1)C1=NN(c2ccc(Cl)cc2)[C@H](c2ccccc2)C1
> 1000 nM

Given CN/C(=N\S(=O)(=O)c1cccc(Cl)c1)C1=NN(c2ccc(Cl)cc2Cl)C(c2ccccc2)C1 (configuration not stated) , state its recorded Ki.
330 nM

Item under review: CNC(=NS(=O)(=O)N1CCC(F)(F)CC1)N1C[C@@H](c2ccccc2)C(c2ccc(Cl)cc2)=N1 . Reported Ki?
> 1000 nM

Give its Ki value. Item: CNC(=NS(=O)(=O)N1CCCCC1)C1=NN(c2ccc(Cl)cc2)C(c2ccccc2)C1 (configuration not stated)
1090 nM

State the recorded Ki for this entry: CN/C(=N\S(=O)(=O)c1ccc(C(F)(F)F)cc1)C1=NN(c2ccc(Cl)cc2Cl)C(c2ccccc2)C1 (configuration not stated)
179 nM

// returns reported Ki for input CNC(=NS(=O)(=O)N1CCC(F)CC1)N1CC(c2ccccc2)C(c2ccc(Cl)cc2)=N1 (configuration not stated)
> 1000 nM

// Ki lookup, key: CNC(=NS(=O)(=O)N1CCC(C(F)(F)F)CC1)C1=NN(c2ccc(Cl)cc2)[C@@H](c2ccccc2)C1
584 nM

Request the reported Ki associated with CN/C(=N\S(=O)(=O)N1CCC(F)CC1)C1=NN(c2ccc(Cl)cc2)C(c2ccccc2)C1 (configuration not stated)
> 1000 nM

###

# Target Under Test: Cannabinoid receptor 1 (Homo sapiens, UniProt P21554)
# Protocol Notes: Antagonist activity at human cannabinoid CB1 receptor expressed in CHO cells assessed as inhibition of CP-55940-induced [3H]arachidonic acid release
# Assay type: functional, cell-based
# Assay Setup: read-out: pA2 (converted)
Recorded Endpoint: log10 Kb (log10 of the value in nM)
Response schema: value (number) is log10 of Kb in units of nM.

Worked examples, 5 compounds total:
Compound: CNC(=NS(=O)(=O)N1CCC(F)(F)CC1)N1C[C@H](c2ccccc2)C(c2ccc(Cl)cc2)=N1
Value Observed: 0.00

Compound: CN/C(=N\S(=O)(=O)c1ccc(Cl)cc1)C1=NN(c2ccc(Cl)cc2)C(c2ccccc2)C1 (stereo unspecified)
Value Observed: 0.60

Compound: CN/C(=N\S(=O)(=O)N1CCC(C(F)(F)F)CC1)C1=NN(c2ccc(Cl)cc2)C(c2ccccc2)C1 (stereo unspecified)
Value Observed: -0.40

Compound: CNC(=NS(=O)(=O)N1CCC(F)(F)CC1)N1C[C@@H](c2ccccc2)C(c2ccc(Cl)cc2)=N1
Value Observed: 2.60

Compound: CN=C(NS(=O)(=O)N1CCC(F)(F)CC1)C1=NN(c2ccc(Cl)cc2)C(c2ccccc2)C1 (stereo unspecified)
Value Observed: -0.10

GET /values?readout=log10 Kb&item= CN/C(=N\S(=O)(=O)N1CCC(C(F)(F)F)CC1)N1CC(c2ccccc2)C(c2ccc(Cl)cc2)=N1 (stereo unspecified)
-0.40

###

# Target Under Test: Cannabinoid receptor 1 (Homo sapiens, UniProt P21554)
# Protocol Notes: Antagonist activity at human cannabinoid CB1 receptor expressed in CHO cells assessed as inhibition of CP-55940-induced [3H]arachidonic acid release
# Format: functional, cell-based
# Assay Setup: read-out: pA2 (converted)
Recorded Endpoint: Kb

# count of solved cases: 4
Molecule: CN/C(=N\S(=O)(=O)N1CCC(F)(F)CC1)C1=NN(c2ccc(Cl)cc2)[C@H](c2ccccc2)C1
Kb: > 200 nM
--
Molecule: CN/C(=N\S(=O)(=O)c1ccc(F)cc1)C1=NN(c2ccc(Cl)cc2)C(c2ccccc2)C1 (stereo not given)
Kb: 10 nM
--
Molecule: CN/C(=N\S(=O)(=O)c1cccc(Cl)c1)C1=NN(c2ccc(Cl)cc2Cl)C(c2ccccc2)C1 (stereo not given)
Kb: 5.01 nM
--
Molecule: CNC(=NS(=O)(=O)N1CCC(F)CC1)N1CC(c2ccccc2)C(c2ccc(Cl)cc2)=N1 (stereo not given)
Kb: 1 nM

Query molecule follows.
What is its Kb for Cannabinoid receptor 1 (Homo sapiens, UniProt P21554)? Entry: CNC(=NS(=O)(=O)N1CCCCC1)C1=NN(c2ccc(Cl)cc2)C(c2ccccc2)C1 (stereo not given)
12.6 nM
